Target: BRAF D594G (Homo sapiens, UniProt P15056, D594G)
Construct: Horizon Discovery (HCT-116 BRAF−/− cells); host or cells: HCT-116 BRAF−/− cells, clone 63, lentiviral transduction
Sequence (P15056 whole entry D594G): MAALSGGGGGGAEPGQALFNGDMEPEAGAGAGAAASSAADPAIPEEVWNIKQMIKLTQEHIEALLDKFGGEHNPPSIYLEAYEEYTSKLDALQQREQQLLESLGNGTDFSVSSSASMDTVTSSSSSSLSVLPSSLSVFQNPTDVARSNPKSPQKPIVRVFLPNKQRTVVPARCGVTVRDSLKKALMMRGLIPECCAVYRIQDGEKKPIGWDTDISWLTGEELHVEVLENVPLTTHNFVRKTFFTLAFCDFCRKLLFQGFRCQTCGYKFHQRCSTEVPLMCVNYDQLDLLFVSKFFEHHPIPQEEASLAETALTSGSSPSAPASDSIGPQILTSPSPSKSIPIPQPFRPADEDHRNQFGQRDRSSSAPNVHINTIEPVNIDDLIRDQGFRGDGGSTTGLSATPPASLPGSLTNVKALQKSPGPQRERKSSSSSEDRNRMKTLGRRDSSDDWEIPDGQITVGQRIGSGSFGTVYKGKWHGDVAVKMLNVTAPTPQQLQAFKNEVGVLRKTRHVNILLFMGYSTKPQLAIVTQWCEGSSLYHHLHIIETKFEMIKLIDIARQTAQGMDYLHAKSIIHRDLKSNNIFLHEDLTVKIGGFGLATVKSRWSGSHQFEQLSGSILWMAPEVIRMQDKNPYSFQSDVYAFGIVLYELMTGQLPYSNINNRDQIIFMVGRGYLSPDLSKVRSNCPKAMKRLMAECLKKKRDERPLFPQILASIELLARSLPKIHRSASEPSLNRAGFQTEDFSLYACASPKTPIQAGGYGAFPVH
Assay: BRAF HiBiT degradation assay, C-terminal HiBiT-tagged BRAF D594G overexpressed in HCT-116 BRAF−/− cells (clone 63), Nano-Glo HiBiT Lytic assay
Type: cell-based
Conditions: BRAF D594G (Class 3), HCT-116 BRAF−/− cells; DC50 at 50% degradation
experimental readout: DC50

Guide cases for DC50, answers given:
O=C1CCC(c2ccc(N3CCC(CN4CCN(c5ccc(-n6cc(-c7cc(Cl)cc(NS(=O)(=O)N8CCCC8)c7F)c(-c7ccncc7)n6)c(F)c5)CC4)CC3)nc2)C(=O)N1 (racemic); < 10 nM
C[C@@H]1CN(c2ccc(-n3cc(-c4cc(Cl)cc(NS(=O)(=O)N5CC[C@@H](F)C5)c4F)c(-c4ccncc4)n3)cc2)CCN1CC1CCN(c2ccc(N3CCC(=O)NC3=O)cc2)CC1; < 10 nM
O=C1CCC(c2ccc(N3CCC(CN4CCN(c5ccc(-n6cc(-c7cc(Cl)cc(NS(=O)(=O)N8CC[C@@H](F)C8)c7F)c(-c7ccncc7)n6)nc5)CC4)CC3)nc2)C(=O)N1 (mixture of isomers); < 10 nM
O=C1CC[C@H](c2ccc(N3CCC(CN4CCN(c5ccc(-n6cc(-c7cc(C(F)F)cc(NS(=O)(=O)N8CCCC8)c7F)c(-c7ccncc7)n6)c(F)c5)CC4)CC3)cc2)C(=O)N1; < 10 nM
O=C1CCC(c2c(F)cc(N3CCC(CN4CCN(c5ccc(-n6cc(-c7cc(Cl)cc(NS(=O)(=O)N8CCCC8)c7F)c(-c7ccncc7)n6)cc5)CC4)CC3)cc2F)C(=O)N1 (racemic); < 10 nM
CCCS(=O)(=O)Nc1cc(Cl)cc(-c2cn(-c3ccc(N4CCN(CC5CCN(c6ccc([C@H]7CCC(=O)NC7=O)cc6)CC5)[C@@H](C)C4)cc3)nc2-c2ccncc2)c1F; 50 to 500 nM
O=C1CC[C@H](c2ccc(N3CCC(CN4CCN(c5ccc(-n6cc(-c7cc(C(F)F)cc(NS(=O)(=O)N8CCCC8)c7F)c(-c7ccncc7)n6)cc5)CC4)CC3)cc2)C(=O)N1; < 10 nM
CCN(C)S(=O)(=O)Nc1cc(Cl)cc(-c2cn(-c3ccc(N4CCN(CC5CCN(c6ccc(N7CCC(=O)NC7=O)cc6)CC5)CC4)cn3)nc2-c2ccncc2)c1F; 10 to 50 nM

For the molecule CCC(C)S(=O)(=O)Nc1cc(Cl)cc(-c2cn(-c3ccc(N4CCN(CC5CCN(c6ccc(N7CCC(=O)NC7=O)cc6)CC5)CC4)cc3)nc2-c2ccncc2)c1F (racemic) , what DC50 is on record?
< 10 nM

Data request, read-out DC50, for O=C1CC[C@H](c2ccc(N3CCC(CN4CCN(c5ccc(-n6cc(-c7cc(Cl)cc(NS(=O)(=O)N8CCCC8)c7F)c(-c7ccncc7)n6)cc5)CC4)CC3)cc2F)C(=O)N1
< 10 nM

* * *

Each entry below carries its reported Dmax.
Biological target: BRAF G466V (Homo sapiens, UniProt P15056, G466V)
Construct: Horizon Discovery (HCT-116 BRAF−/− cells); host or cells: HCT-116 BRAF−/− cells, clone 8, lentiviral transduction
Sequence (P15056 whole entry G466V): as the sequence (P15056 whole entry D594G) above, with G466V, G594D counted along it
Test: BRAF HiBiT degradation assay, C-terminal HiBiT-tagged BRAF G466V overexpressed in HCT-116 BRAF−/− cells (clone 8), Nano-Glo HiBiT Lytic assay
Type: cell-based
Conditions: HCT-116; BRAF G466V; percentage protein degraded at maximal compound effect relative to DMSO
Experimental: An A375 cell line expressing a homozygous V600E mutation was purchased from ATCC (Manassas, VA, USA). […] HiBiT signal was measured by a Nano-Glo HiBiT Lytic assay (Promega cat. no. N3050). […] Luminesce units (LU) were read on an EnVision plate reader 2105 (Perkin Elmer). Percent protein remaining and viability remaining per sample were calculated as follows: […]

CCCS(=O)(=O)Nc1cccc(-c2cn(C3CCN(C(=O)C4CCN(CC5CCN(c6ccc(C7CCC(=O)NC7=O)cn6)CC5)CC4)CC3)nc2-c2ccncc2)c1F (racemic); 30 to 70%
CCCS(=O)(=O)Nc1cccc(-c2nc(C(C)(C)C)sc2-c2ccnc(Nc3ccc(C4CCN(CC5CCN(c6cncc(C7CCC(=O)NC7=O)c6)CC5)CC4)cc3)n2)c1F (racemic); < 30%
CCCS(=O)(=O)Nc1cccc(-c2nc(C(C)(C)C)sc2-c2ccnc(Nc3cccc(OC4CCN(CC[C@@H]5CCN(c6ccc(C7CCC(=O)NC7=O)cn6)C5)CC4)c3)n2)c1F (mixture of isomers); < 30%

Item under review: CCCS(=O)(=O)Nc1cccc(-c2nc(C3CCN(C(=O)C4CCN(C(=O)C5(C)CCN(c6ccc(C7CCC(=O)NC7=O)cn6)CC5)CC4)CC3)sc2-c2ccnc(N)n2)c1F (racemic) . Reported Dmax?
30 to 70%

// query Dmax value for entry CCCS(=O)(=O)Nc1cccc(-c2nc(C3CCN(C(=O)C4CCN(C(=O)C5CCN(c6ccc(C7CCC(=O)NC7=O)cn6)CC5)CC4)CC3)sc2-c2ccnc(NC3CC3)n2)c1F (racemic)
30 to 70%
